Assignment: determine reported pKd for the given binders.
- TESTED_TARGET: T1, EDIII-DV3 (E protein domain III of dengue virus serotype DV-3) (dengue virus serotype DV-3, UniProt P27915 571-678)
- T1 construct: also called DENV-3; EDIII of DV-3
- T1 sequence (P27915 571-678, tags left off): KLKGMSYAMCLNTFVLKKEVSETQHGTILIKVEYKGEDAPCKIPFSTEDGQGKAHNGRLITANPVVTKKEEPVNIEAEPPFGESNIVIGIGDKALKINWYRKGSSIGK
One number for each entry, as −log10 of the molar value.

Study these solved cases before continuing.
BINDER	READOUT_NAME	REPORTED_MEASUREMENT
D178 (antibody, V domains shown) VH: QVQLVQSGAEVKKPGASVKVSCKAGFNIKDVYMSWVRQAPEQGLEWMGRIDPENGDTKYDPKLQGRVTMTADTSTNTAYMELRSLRSDDTAVYYCVRGWEGFAYWGQGTLVTVSS VL: DIVMTQSPASLAVSLGERATISCRASENVDKYGNSFMHWYQQKPGQPPKLLIYRASELQWGVPDRFSGSGSGTDFTLTISSLQAEDVAVYYCQRSNEVPWTFGQGTKLEIK	pKd	8.98
antibody C98 (antibody, V domains shown) VH: QVQLVQSGAEVKKPGASVKVSCKASGFNIKDVYMSWVRQAPEQGLEWMGRIDPENGDTKYDPKLQGRVTMTADTSTNTAYMELRSLRSDDTAVYYCVRGWEGFAYWGQGTLVTVSS VL: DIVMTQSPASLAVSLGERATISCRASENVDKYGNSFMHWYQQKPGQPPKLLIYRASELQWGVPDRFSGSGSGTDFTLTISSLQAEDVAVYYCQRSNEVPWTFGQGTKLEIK	pKd	8.92

Let's switch to this binder now.
Input: Entry under review: antibody D88 (antibody, V domains shown, also called mAb D88) VH: QVQLVQSGAEVKKPGASVKVSCKAGFNIKDVYMSWVRQAPEQGLEWMGRIDPENGDTKYDPKLQGRVTMTADTSTNTAYMELRSLRSDDTAVYYCARGWEGFAYWGQGTLVTVSS VL: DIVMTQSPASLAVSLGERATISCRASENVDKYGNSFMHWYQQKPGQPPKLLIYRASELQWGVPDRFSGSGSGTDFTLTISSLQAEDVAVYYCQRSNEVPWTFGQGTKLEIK . Reported pKd?
Output: 8.98
